For each of the sequences below, state its phosphorylation enrichment.
target: FGFR1 (UniProt P11362); assay: phosphorylation enrichment, bacterial display (enrichment ratio); higher = better substrate or ligand; peptides without Tyr show the background;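 note: 11-residue human phosphosite peptides and single-mutation variants displayed on the E. coli surface, counted by deep sequencing, each peptide's frequency after selection divided by its frequency in the unselected input library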;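 note: frequency after pTyr selection over input frequency; kinase dosed for 20-30% of maximal phosphorylation in three min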
Sequence (P11362 whole entry, looked up): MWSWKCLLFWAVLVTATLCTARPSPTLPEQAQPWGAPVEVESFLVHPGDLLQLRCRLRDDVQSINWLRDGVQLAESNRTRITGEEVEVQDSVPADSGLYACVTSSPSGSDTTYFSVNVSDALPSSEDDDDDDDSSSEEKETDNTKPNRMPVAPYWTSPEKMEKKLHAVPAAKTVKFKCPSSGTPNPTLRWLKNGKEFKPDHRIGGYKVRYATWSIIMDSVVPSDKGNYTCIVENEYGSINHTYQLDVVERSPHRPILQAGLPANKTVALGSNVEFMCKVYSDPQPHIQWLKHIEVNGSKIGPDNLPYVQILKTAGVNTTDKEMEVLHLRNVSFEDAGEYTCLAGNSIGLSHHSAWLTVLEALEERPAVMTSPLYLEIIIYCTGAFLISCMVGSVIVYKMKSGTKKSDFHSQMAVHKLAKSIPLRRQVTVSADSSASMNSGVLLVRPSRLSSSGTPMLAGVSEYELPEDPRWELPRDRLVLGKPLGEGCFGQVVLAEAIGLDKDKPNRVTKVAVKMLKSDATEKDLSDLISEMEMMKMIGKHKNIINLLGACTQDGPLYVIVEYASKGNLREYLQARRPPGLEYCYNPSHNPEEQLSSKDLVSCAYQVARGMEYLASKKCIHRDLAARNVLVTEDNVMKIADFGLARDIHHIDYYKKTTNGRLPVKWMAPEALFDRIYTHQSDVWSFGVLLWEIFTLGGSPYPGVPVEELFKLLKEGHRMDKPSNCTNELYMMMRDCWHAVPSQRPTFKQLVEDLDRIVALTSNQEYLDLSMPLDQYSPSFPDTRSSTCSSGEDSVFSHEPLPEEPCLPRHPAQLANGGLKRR
Form: value (number only, do not type unit).

Form: sequence = LYEDHYLLGTS [ASS1_Y87_R86H] ; phosphorylation enrichment = 0.689

Form: sequence = GCLSKYSGVFS [TUBGCP6_Y1624_V1621L] ; phosphorylation enrichment = 0.425

Form: sequence = KLPDAYEPLIL [G6PD_Y437_R439P] ; phosphorylation enrichment = 0.53

Form: sequence = LYSINYLHFGE [KDM4C_Y201] ; phosphorylation enrichment = 3.6

Form: sequence = RESFKYFPSSL [CXXC1_Y218_YF] ; phosphorylation enrichment = 0.543

Form: sequence = HFGCVYHGTLL [MET_Y1093] ; phosphorylation enrichment = 1.04

Form: sequence = SVTCTYSPAIN [TP53_Y126_L130I] ; phosphorylation enrichment = 0.702

Form: sequence = CEAVEYLESKQ [BTK_Y511_M509V] ; phosphorylation enrichment = 0.534

Form: sequence = RPGSGYTNIMQ [PKLR_Y564_R569Q] ; phosphorylation enrichment = 0.763

Form: sequence = VHNLDYYKQTT [FGFR3_Y647_K650Q] ; phosphorylation enrichment = 1.36

Form: sequence = AIIGIYILRDN [CDH23_Y2949_D2954N] ; phosphorylation enrichment = 0.604

Form: sequence = CTTIHYNYRCN [TP53_Y234_M237R] ; phosphorylation enrichment = 0.502

Form: sequence = GSERDYTYDEL [EIF2S2_Y174_E177D] ; phosphorylation enrichment = 0.507

Form: sequence = PMFTKYGNGLL [RPGRIP1L_Y196_S199G] ; phosphorylation enrichment = 0.496

Form: sequence = SNFRAYATEPH [TNNI3_Y29_YF] ; phosphorylation enrichment = 0.53

Form: sequence = SNKLFYQLEQE [PDPR_Y110_YF] ; phosphorylation enrichment = 0.588

Form: sequence = "PKDSAYVTWEP" ; phosphorylation enrichment = 2.14

Form: sequence = KWTVDYLGQVG [TYW5_Y48_S50G] ; phosphorylation enrichment = 0.531

Form: sequence = GNLQEYLTRHV [TGFBR2_Y336] ; phosphorylation enrichment = 0.516

Form: sequence = LSIQCYLRALD [HMGCS2_Y262] ; phosphorylation enrichment = 0.672

Form: sequence = MFCASYDTKQE [F10_Y407_G406S] ; phosphorylation enrichment = 0.561

Form: sequence = ADRNHYRRYRR [YBX1_Y145_P149R] ; phosphorylation enrichment = 0.532

Form: sequence = AKLDEYIAIAK [RCOR3_Y46] ; phosphorylation enrichment = 0.535

Form: sequence = SFLSFYTSHVQ [NEFL_Y443_P440L_YF] ; phosphorylation enrichment = 0.531

Form: sequence = RTLIRYANLGN [BEST1_Y131] ; phosphorylation enrichment = 0.621

Form: sequence = INSLKYAFNVS [EIF2B5_Y583_I587V_YF] ; phosphorylation enrichment = 0.44

Form: sequence = LQFRNYQQLFD [MAN2A1_Y442_K440R] ; phosphorylation enrichment = 0.857

Form: sequence = YPPTHYIRRVP [SLC4A11_Y820] ; phosphorylation enrichment = 0.448

Form: sequence = YEEDSYVTRSQ [RET_Y905_K907T] ; phosphorylation enrichment = 0.604

Form: sequence = PADCRYFTFPQ [GAMT_Y222_A224T_YF] ; phosphorylation enrichment = 1.2

Form: sequence = ISIFHCAKGQP [MPZ_Y82_Y82C] ; phosphorylation enrichment = 0.729

Form: sequence = HPHECYAKVFD [ALB_Y394_D389H] ; phosphorylation enrichment = 0.636

Form: sequence = PTATSYNPNLA [GABRA1_Y375_T376N] ; phosphorylation enrichment = 0.864

Form: sequence = PLFKIYVAELI [MRPL28_Y230] ; phosphorylation enrichment = 0.806

Form: sequence = LNCAGYCDALE [MTUS1_Y151] ; phosphorylation enrichment = 0.55

Form: sequence = LRAGVYPEKDQ [DNM2_Y626] ; phosphorylation enrichment = 0.467

Form: sequence = REAAAYLHGRL [AGXT_Y297] ; phosphorylation enrichment = 0.671

Form: sequence = DAASNYARGHF [TUBA3E_Y103_YF] ; phosphorylation enrichment = 0.41

Form: sequence = DSSIRYLQEIF [FGG_Y135_YF] ; phosphorylation enrichment = 0.632

Form: sequence = VQDPAYLRDID [OPRK1_Y369] ; phosphorylation enrichment = 0.533

Form: sequence = "ANNEYYFRVCA" ; phosphorylation enrichment = 1.89

Form: sequence = SLLKDYSPQLQ [OTC_Y345_T343K] ; phosphorylation enrichment = 0.495

Form: sequence = RLQEDYDHSFF [ESD_Y258_G257D_YF] ; phosphorylation enrichment = 0.842

Form: sequence = TNIKRYHIAKV [HARS1_Y150] ; phosphorylation enrichment = 0.301

Form: sequence = LENSTYQYICV [CRB1_Y760_R764C] ; phosphorylation enrichment = 14.1

Form: sequence = LLLLFCVVRFC [MPZ_Y177_Y177C_YF] ; phosphorylation enrichment = 0.973

Form: sequence = RELGKYGLQAY [ALDH2_Y497_E496K] ; phosphorylation enrichment = 0.426

Form: sequence = DDLEVYLKHLL [SACS_Y3477] ; phosphorylation enrichment = 0.479

Form: sequence = ATCKAYGQALA [TKT_Y321_R318C] ; phosphorylation enrichment = 0.445

Form: sequence = HKLSYYEYDFE [BTK_Y40] ; phosphorylation enrichment = 7.25

Form: sequence = HNVPIYEGYGL [ACTA1_Y168_A172G] ; phosphorylation enrichment = 0.666

Form: sequence = SRNKPYISWPS [CDC42BPB_Y1638] ; phosphorylation enrichment = 0.469

Form: sequence = CGTPTYLAPEV [CHEK2_Y390] ; phosphorylation enrichment = 1.12

Form: sequence = SSQHRYSTPHA [RAF1_Y232] ; phosphorylation enrichment = 0.364

Form: sequence = FGPPQYNMQFS [ERBB2IP_Y977_I979M_YF] ; phosphorylation enrichment = 0.448

Form: sequence = HEDPMYDIIRD [RP9_Y142] ; phosphorylation enrichment = 0.718

Form: sequence = LGRTRYQHVTG [MIPEP_Y510] ; phosphorylation enrichment = 0.477

Form: sequence = YFCRWYRNQKS [EREG_Y144_R147Q] ; phosphorylation enrichment = 0.473

----------
For each of the sequences below, state its phosphorylation enrichment.
molecular target: Hck (UniProt P08631); assay: phosphorylation enrichment, bacterial display (enrichment ratio); higher = better substrate or ligand; peptides without Tyr show the background
Sequence (P08631 whole entry, looked up): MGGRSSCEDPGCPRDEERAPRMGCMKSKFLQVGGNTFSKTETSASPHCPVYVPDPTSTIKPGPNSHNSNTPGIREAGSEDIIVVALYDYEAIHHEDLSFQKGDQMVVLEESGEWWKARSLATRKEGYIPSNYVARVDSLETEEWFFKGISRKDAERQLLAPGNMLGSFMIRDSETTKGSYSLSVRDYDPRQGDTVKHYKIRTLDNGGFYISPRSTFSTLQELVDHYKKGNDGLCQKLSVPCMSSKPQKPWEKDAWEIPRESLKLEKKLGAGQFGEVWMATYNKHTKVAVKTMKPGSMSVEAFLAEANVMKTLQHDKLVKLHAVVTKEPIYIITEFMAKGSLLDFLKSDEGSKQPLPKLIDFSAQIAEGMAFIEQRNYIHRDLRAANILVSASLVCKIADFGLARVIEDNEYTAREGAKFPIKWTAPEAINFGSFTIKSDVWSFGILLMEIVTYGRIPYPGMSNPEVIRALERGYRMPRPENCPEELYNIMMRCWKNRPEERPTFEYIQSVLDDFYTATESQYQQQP
Form: value (number only, do not type unit).

Form: sequence = VKRNRYKDILP [PTPN12_Y64_K61R] ; phosphorylation enrichment = 0.579

Form: sequence = NLFIEYPTGSG [IRF2BPL_Y423_K418N] ; phosphorylation enrichment = 0.497

Form: sequence = AKFPFYEKNKK [FOXL2_Y91] ; phosphorylation enrichment = 0.443

Form: sequence = RDLEQYVNNVN [PCDH19_Y1097] ; phosphorylation enrichment = 0.377

Form: sequence = RESFKYLPSSL [CXXC1_Y218_F219L_YF] ; phosphorylation enrichment = 0.381

Form: sequence = GLAELYEFKKK [CKAP5_Y1854_YF] ; phosphorylation enrichment = 0.559

Form: sequence = GRTGHYLCNAC [GATA1_Y223_D218G] ; phosphorylation enrichment = 0.392

----------
molecular target: Fyn (UniProt P06241); test: phosphorylation enrichment, bacterial display (enrichment ratio); higher = better substrate or ligand; peptides without Tyr show the background
Sequence (P06241 whole entry, looked up): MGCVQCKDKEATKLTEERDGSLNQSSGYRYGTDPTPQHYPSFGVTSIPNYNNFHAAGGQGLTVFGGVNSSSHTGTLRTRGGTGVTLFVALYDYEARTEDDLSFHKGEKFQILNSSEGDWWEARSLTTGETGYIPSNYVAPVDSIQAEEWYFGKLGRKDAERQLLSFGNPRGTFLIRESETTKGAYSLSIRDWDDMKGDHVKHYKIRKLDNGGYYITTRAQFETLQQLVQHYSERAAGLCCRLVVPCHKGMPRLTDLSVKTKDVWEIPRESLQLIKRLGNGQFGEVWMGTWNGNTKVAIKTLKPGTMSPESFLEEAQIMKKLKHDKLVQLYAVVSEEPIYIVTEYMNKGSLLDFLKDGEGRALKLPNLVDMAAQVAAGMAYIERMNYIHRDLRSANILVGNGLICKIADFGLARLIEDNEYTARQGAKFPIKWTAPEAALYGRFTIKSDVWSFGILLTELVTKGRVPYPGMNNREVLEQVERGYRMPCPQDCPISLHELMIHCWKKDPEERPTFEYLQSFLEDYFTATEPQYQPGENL
test.readout: phosphorylation enrichment
Form: value (number only, do not type unit).

Form: sequence = KKYFSYAWPFY [BRDT_Y291_H288Y] ; phosphorylation enrichment = 0.383

Form: sequence = HEKKVYSFCGT [RPS6KA3_Y226_A225V] ; phosphorylation enrichment = 0.58

Form: sequence = CTTIHYIFMCN [TP53_Y234_N235I_YF] ; phosphorylation enrichment = 0.418

Form: sequence = LSIQCYLRALD [HMGCS2_Y262] ; phosphorylation enrichment = 0.825

Form: sequence = "TENAGYFFRIS" ; phosphorylation enrichment = 0.511

Form: sequence = VQDPAYLRDID [OPRK1_Y369] ; phosphorylation enrichment = 0.425

Form: sequence = SVVAPYEPPEV [TP53_Y220_V218A] ; phosphorylation enrichment = 0.67

Form: sequence = VVEYGYEFFAK [PPP1CB_Y254_D252Y] ; phosphorylation enrichment = 0.609

Form: sequence = PADCRYFTFPQ [GAMT_Y222_A224T_YF] ; phosphorylation enrichment = 0.61

Form: sequence = NIWDSYTTNKV [GNB1_Y85_I80N] ; phosphorylation enrichment = 0.416

Form: sequence = EEGENYQKGEQ [CHGB_Y173_R178Q] ; phosphorylation enrichment = 0.519

Form: sequence = GGRIDYIAGLD [APRT_Y60] ; phosphorylation enrichment = 0.409

Form: sequence = AHLTEYLSTHY [UQCRC1_Y219_D215H] ; phosphorylation enrichment = 0.402

Form: sequence = DNEYAYLKAII [HNF4A_Y288] ; phosphorylation enrichment = 0.615

Form: sequence = LNCIYYKDQTG [RS1_Y166_W163C] ; phosphorylation enrichment = 2.93

Form: sequence = SLLKDYSPQLQ [OTC_Y345_T343K] ; phosphorylation enrichment = 0.6

Form: sequence = KDYETYQPFQN [CTNND2_Y1157] ; phosphorylation enrichment = 6

Form: sequence = EGQKIYIDDNN [PIP4K2A_Y246] ; phosphorylation enrichment = 0.568

Form: sequence = VTVLDYDKTGK [SYT1_Y365_I368T] ; phosphorylation enrichment = 0.442

Form: sequence = HLVLNYGVCVC [JAK2_Y613] ; phosphorylation enrichment = 1.1

Form: sequence = NTGGYYDLYGG [PTPN11_Y63_D61G] ; phosphorylation enrichment = 8.66

Form: sequence = "KPGVNYFFQVS" ; phosphorylation enrichment = 0.538

Form: sequence = NKPTVCGVSPN [ABL1_Y226_Y226C] ; phosphorylation enrichment = 0.439

Form: sequence = TAALWYIFSHT [ENG_Y612_YF] ; phosphorylation enrichment = 0.514

Form: sequence = HPHECYAKVFD [ALB_Y394_D389H] ; phosphorylation enrichment = 0.622

Form: sequence = AGLVQYYMEHH [PTPN11_Y80_E76G] ; phosphorylation enrichment = 0.545

Form: sequence = SVDRDYVLKSA [HTATIP2_Y111_R106S] ; phosphorylation enrichment = 0.439

Form: sequence = SGSIHYSHVPR [GLB1_Y57_R59H] ; phosphorylation enrichment = 0.35

Form: sequence = RLQEDYDHSFF [ESD_Y258_G257D_YF] ; phosphorylation enrichment = 0.792

Form: sequence = TQFWRYFAGNL [SLC25A5_Y112_L111R] ; phosphorylation enrichment = 0.509

Form: sequence = PPAPRYHDSAV [LZTR1_Y119_H121D] ; phosphorylation enrichment = 0.861

Form: sequence = KKKKQYKDKFL [CASK_Y708_YF] ; phosphorylation enrichment = 0.701

Form: sequence = NFDRVYIYHLR [MYOF_Y1137] ; phosphorylation enrichment = 0.858

Form: sequence = ITNLLYHLVGW [GBA_Y412_V414L] ; phosphorylation enrichment = 2.56

Form: sequence = FSKTQYNQVPS [CXADR_Y318_YF] ; phosphorylation enrichment = 0.507

Form: sequence = PLQKIYNYNVL [SLC4A1_Y553_T552I] ; phosphorylation enrichment = 0.409

Form: sequence = WASGIYFVPKG [APBB1IP_Y340_R335W_YF] ; phosphorylation enrichment = 7.44

Form: sequence = KIDAKYKKKIE [WDR19_Y1230] ; phosphorylation enrichment = 0.308

Form: sequence = LRVHSYKSMQH [DRC7_Y516_P521H] ; phosphorylation enrichment = 0.954

Form: sequence = MAYDRYVAICS [OR8D4_Y123_C120Y] ; phosphorylation enrichment = 0.486

Form: sequence = LFDPDFMKVIL [CYP4A22_Y104_Y104F_YF] ; phosphorylation enrichment = 0.899

Form: sequence = LVMFFYAIFGM [SCN1A_Y1684_I1683F] ; phosphorylation enrichment = 0.789

Form: sequence = DTSKMYIPHTD [EXPH5_Y782] ; phosphorylation enrichment = 0.372

Form: sequence = VIESSYTSADG [DHCR7_Y382_C380S] ; phosphorylation enrichment = 0.551

Form: sequence = YFCRWYRNQKS [EREG_Y144_R147Q] ; phosphorylation enrichment = 0.447

Form: sequence = FEEDPYLVVNP [MCM6_Y810_YF] ; phosphorylation enrichment = 1.88

Form: sequence = KSLFHHRQYSA [CPS1_Y1491_Y1491H] ; phosphorylation enrichment = 0.519

Form: sequence = GRLGEYDIDEV [SMS_Y134_V132G] ; phosphorylation enrichment = 0.789

Form: sequence = DSSIRYLQEIF [FGG_Y135_YF] ; phosphorylation enrichment = 0.559

Form: sequence = DRLASYLEKVR [KRT13_Y118] ; phosphorylation enrichment = 0.366

Form: sequence = RTLIRYANLGN [BEST1_Y131] ; phosphorylation enrichment = 0.973

Form: sequence = LPSKDYAEVRR [HP_Y272_G276R] ; phosphorylation enrichment = 0.559

Form: sequence = IRKVLYANNVM [ACTA1_Y296_D294V] ; phosphorylation enrichment = 0.286

Form: sequence = DLDLTSIYPNI [PTEN_Y27_Y27S] ; phosphorylation enrichment = 0.506

Form: sequence = QKDIFYGLRSL [IGSF10_Y126_T124I] ; phosphorylation enrichment = 0.783

Form: sequence = SGIFQYIIAKF [FOXL2_Y83_YF] ; phosphorylation enrichment = 0.496

Form: sequence = CSRRFYQLTKL [AR_Y858] ; phosphorylation enrichment = 0.462

Form: sequence = MNPPPYSQFLS [FGF23_Y154] ; phosphorylation enrichment = 0.478
